TARGET OF ASSAY: T1, 4H319-bN
T1 chain: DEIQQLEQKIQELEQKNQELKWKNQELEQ
RUN DESCRIPTION: two-hybrid library CCNG1;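 note: natural log of median RNA to DNA barcode read ratio; higher means stronger binding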
RECORDED METRIC: interaction score

{"BINDER": "DEIQQLEQEIQELKQKNQELKWEIQELEQ [4H121-bN]", "interaction score": -1.04}

P: DKIQQLEQKNQELKQEIQELEWKNQELEQ [4H2503-bN]
Q: DKIQQLKQKNQELKQKNQELEWEIQELEQ [4H3057-bN]
R: DKIQQLKQENQELEQEIQELEWENQELKQ [4H2692-bN]
S: DKIAQLKQENAELEQEIAELEWENAQLKQ [4H2692-bA]
Ask: Rank by interaction score (largest to smallest). Note for the reader: the ranking is given by listing the labels in the order requested.
Result: S, R, P, Q
